Each recorded value in this set is attributed to ChEMBL document CHEMBL4689842.

For each of the compounds below, state its Population Membrane Permeable-Phenotype (%).
tested on: HEK-293T; assay: Multiplex assay against HEK293T; type: toxicity, cell-based; conditions: human, 24 h, 10 µM, compound concentration 10 uM, replicate 1
Numbers only, in %.

compound	units	experimental-result
N#Cc1cnc(Nc2cc(NC[C@H]3CNCCO3)c(C(F)(F)F)cn2)cn1	%	4
CCOc1cc(N2CCC(O)CC2)ccc1Nc1ncc2c(n1)N(C1CCCC1)CCC(=O)N2C	%	8
Cc1cn(-c2cc(NC(=O)c3ccc4c(c3)CN(c3cncnc3)C[C@@H]4C)cc(C(F)(F)F)c2)cn1	%	29
COc1ccc(NS(=O)(=O)c2sc3ccc(Cl)cc3c2C)cc1N1CCNCC1.Cl	%	4
CC(C)(C)c1cnc(CSc2cnc(NC(=O)C3CCNCC3)s2)o1	%	1

Dear colleague, could you send me Population Membrane Permeable-Phenotype (%) for each of the items below? Thanks.
1. Cc1nc(Cc2cccc(C(F)(F)F)c2)sc1-c1ccc(C(N)=O)nc1 [TP-024n]
2. COc1cc2c(Nc3ccc(NC(=O)c4ccccc4)cc3)ncnc2cc1OCCCN1CCOCC1
3. Cc1cc2c(cc1N1C(=O)c3cccc4c(CCCO)ccc(c34)C1=O)n(C)c(=O)n2C
4. Cc1c(Oc2ccc(F)cc2)c(OC(C)C)nn1-c1ccc(C2CC2)cn1
5. C[C@@H]1CN(c2cc(-c3nn(C)c4ccc(OC5(C)CC5)cc34)ncn2)C[C@H](C)O1
6. CCOc1cc2ncc(C#N)c(Nc3ccc(OCc4cccc(F)c4)c(Cl)c3)c2cc1NC(=O)/C=C/CN(C)C

Reply:
3
11
6
10
3
10

Dear colleague, could you please provide Population Membrane Permeable-Phenotype (%) for the compounds listed below?
1. CC(=O)c1cc(-c2cc(C(=O)NC3CC3)ccc2C)c2ncccn12
2. c1ccc2oc(-c3csc(C4CCN(Cc5nc6ncccc6[nH]5)CC4)n3)cc2c1
3. CCCn1c(=O)c2[nH]c(C34CC5CC(CC3C5)C4)nc2n(CCC)c1=O
4. O=C(O)c1ccc2cc(-c3ccc(O)c(C45CC6CC(CC(C6)C4)C5)c3)ccc2c1

Reply:
1: 0; 2: 7; 3: 2; 4: 1

Batch lookup, Population Membrane Permeable-Phenotype (%) per entry.
1. CCC(=O)O[C@]1(C(=O)SCF)[C@H](C)C[C@H]2[C@@H]3C[C@H](F)C4=CC(=O)C=C[C@]4(C)[C@@]3(F)[C@@H](O)C[C@@]21C [FLUTICASONE PROPIONATE]
2. Cl.Cl.Nc1ncnc2c1c(-c1cccc(OCc3ccccc3)c1)cn2[C@H]1C[C@@H](CN2CCC2)C1

Reply:
1: 0; 2: 0

---

system: U2OS; assay: Multiplex assay against U2OS; format: toxicity, cell-based; conditions: human, 12 h, 1 µM, compound concentration 1 uM, replicate 1
For each entry below, report its Population Fragmented Nuclei (%) value.
Numbers only, in %.

# annotated cases, reported Population Fragmented Nuclei (%) shown
compound	Population Fragmented Nuclei (%)
N#Cc1cnc(Nc2cc(NC[C@H]3CNCCO3)c(C(F)(F)F)cn2)cn1 [SRA-737]	0
CC(C)Oc1ccc(C(=O)N[C@H](CNC(=O)CN(C)C)Cc2ccc(-c3cn4cccc([C@H](C)O)c4n3)cc2)cc1Cl [GSK-923295A]	9

With those in mind, consider the next compound.
Value of measured Population Fragmented Nuclei (%) for the entry Cc1cc2c(cc1N1C(=O)c3cccc4c(CCCO)ccc(c34)C1=O)n(C)c(=O)n2C : 11

---

system: HEK-293T; test: Multiplex assay against HEK293T; assay type: toxicity, cell-based; conditions: human, 12 h, 10 µM, compound concentration 10 uM, replicate 1
I'd be grateful if you could share measured Population Hoechst High Intensity Objects (%) for these entries.
One number for each entry, in %.

Illustrative cases are given below, each with its answer.
molecule	units	experimental-result
CCOc1cc(N2CCC(O)CC2)ccc1Nc1ncc2c(n1)N(C1CCCC1)CCC(=O)N2C	%	13
CC(C)(C)c1cnc(CSc2cnc(NC(=O)C3CCNCC3)s2)o1	%	21
CCC(=O)O[C@]1(C(=O)SCF)[C@H](C)C[C@H]2[C@@H]3C[C@H](F)C4=CC(=O)C=C[C@]4(C)[C@@]3(F)[C@@H](O)C[C@@]21C [FLUTICASONE PROPIONATE]	%	15

For the next question, use this molecule.
Record COc1cc2c(Nc3ccc(NC(=O)c4ccccc4)cc3)ncnc2cc1OCCCN1CCOCC1 , field Population Hoechst High Intensity Objects (%): 11

---

test system: U2OS; assay: Incucyte cell viability with U2OS; type: toxicity, cell-based; details: human, 6 h, 10 µM, compound concentration 10 uM, replicate number 2, timepoint 6 hours; note: filed as whole numbers so only -1 and 0 and 1 occur
measurement-kind: Growth Rate
Numbers only.

compound	subject-of-test	Growth Rate
COc1ccc(/C=C/CCCCOc2ccc(C(=O)c3cccc(C(=O)O)c3)cc2CCC(=O)O)cc1	U2OS	0
CC(C)(C)c1cnc(CSc2cnc(NC(=O)C3CCNCC3)s2)o1	U2OS	0
CCCCN(CCCC)C(=O)CN1C[C@@H](c2cc(OC)c3c(c2)OCO3)[C@H](C(=O)O)[C@H]1CC(C)(C)CCC.Cl	U2OS	0
CCN(CC)CCCCC1CCN(CC(=O)N2c3ccccc3C(=O)Nc3cccnc32)CC1	U2OS	0
N#Cc1ccccc1OCC(O)CNCCNC(=O)Nc1ccccc1 (stereo not drawn)	U2OS	0
CCCOc1ccc([C@@H]2[C@@H](C(=O)O)[C@H](c3ccc4c(c3)OCO4)CN2CC(=O)Nc2c(CC)cccc2CC)cc1	U2OS	0
O=C(NCc1ccc(F)cc1)C1CCN(S(=O)(=O)c2cc(Cl)cc(Cl)c2)CC1	U2OS	0
CC(C)CC(=O)N1CCc2nc(-c3ccc(Br)cc3)nc(N(C)Cc3ccccc3)c2C1	U2OS	0
O=C(NC[C@H](O)CN1CCc2ccccc2C1)c1ccnc(NC2CCC2)c1	U2OS	1
Clc1cc2c(NC3CCCC3)nnc(-c3ccncc3)c2cc1Cl	U2OS	1

For every listed record, write down its Growth Rate.
1. CN(C(=O)Cc1ccc(Cl)c(Cl)c1)C(CN1CCCC1)c1cccc(OCC(=O)O)c1.Cl (stereo not drawn)
2. Cc1cc(SCc2sc(-c3ccc(C(F)(F)F)c(F)c3)nc2C)ccc1OCC(=O)O
3. O=C(O)c1ccc2c(c1)nc(Nc1cccc(Cl)c1)c1ccncc12
4. CCN1CCN(Cc2ccc(NC(=O)c3ccc(C)c(Oc4ccnc5[nH]ccc45)c3)cc2C(F)(F)F)CC1.Cl.Cl.Cl.O
5. CCNC(=O)c1cc2c(N3CCOC[C@@H]3C)ccnc2[nH]1
6. CCC(=O)N[C@@H]1CC[C@H](C(=O)N(C)c2ccc(-c3nc4ccccc4o3)cc2)C1

Reply:
1. 1
2. 1
3. 0
4. 1
5. 0
6. 1

Please go through the list and note Growth Rate for each compound.
1. CO[C@H]1/C=C/O[C@@]2(C)Oc3c(C)c(O)c4c(O)c(c(/C=N/N5CCN(C)CC5)c(O)c4c3C2=O)NC(=O)/C(C)=C\C=C\[C@H](C)[C@H](O)[C@@H](C)[C@@H](O)[C@@H](C)[C@H](OC(C)=O)[C@@H]1C
2. CCCCc1nc(Cl)c(CO)n1Cc1ccc(-c2ccccc2-c2nn[nH]n2)cc1

Reply:
1. 1
2. 1

---

system: U2OS; experiment: Multiplex assay against U2OS; type: toxicity, cell-based; settings: human, 48 h, 1 µM, compound concentration 1 uM, replicate 1
measurement-kind: Population Hoechst High Intensity Objects (%)
Answers are plain numbers, in %.

compound	experimental-result
Nc1nc2c(c(N3CCNCC3)n1)CCC1=C2[C@@H]2CCCC[C@@H]2O1	5
CCn1c(-c2nonc2N)nc2cnc(Oc3cccc(NC(=O)c4ccc(OCCN5CCOCC5)cc4)c3)cc21 [GSK-269962A]	4
COc1ccc(NS(=O)(=O)c2sc3ccc(Cl)cc3c2C)cc1N1CCNCC1.Cl	3
CCc1cc2c(cc1CC)CC(NC[C@H](O)c1ccc(O)c3[nH]c(=O)ccc13)C2	4
CC(=O)c1cc(-c2cc(C(=O)NC3CC3)ccc2C)c2ncccn12	2

Please give Population Hoechst High Intensity Objects (%), item by item, for the list that follows.
1. CNc1oc(-c2cccc3ccccc23)nc1C#N
2. Cc1cc2c(cc1N1C(=O)c3cccc4c(CCCO)ccc(c34)C1=O)n(C)c(=O)n2C
3. Cl.Cl.Nc1ncnc2c1c(-c1cccc(OCc3ccccc3)c1)cn2[C@H]1C[C@@H](CN2CCC2)C1
4. O=C(O)c1ccc2cc(-c3ccc(O)c(C45CC6CC(CC(C6)C4)C5)c3)ccc2c1

Reply:
1. 14
2. 3
3. 2
4. 7

---

Give measured Population Fragmented Nuclei (%) for each item. Keep answers brief.
tested on: HEK-293T; assay: Multiplex assay against HEK293T; format: toxicity, cell-based; conditions: human, 24 h, 1 µM, compound concentration 1 uM, replicate 2
One number for each entry, in %.

Below, 3 compounds whose answers are already recorded.
compound	Population Fragmented Nuclei (%)
COc1cc2c(NC3CCN(C(C)C)CC3)nc(N3CCC(F)(F)CC3)nc2cc1OCCCN1CCCC1	6
CC(=O)c1cc(-c2cc(C(=O)NC3CC3)ccc2C)c2ncccn12	5
CCCn1c(=O)c2[nH]c(C34CC5CC(CC3C5)C4)nc2n(CCC)c1=O [ROLOFYLLINE]	4

For each of the compounds below, note its Population Fragmented Nuclei (%).
1. Nc1nc2c(c(N3CCNCC3)n1)CCC1=C2[C@@H]2CCCC[C@@H]2O1
2. Cc1nc(Cc2cccc(C(F)(F)F)c2)sc1-c1ccc(C(N)=O)nc1 [TP-024n]
3. CNC(=O)c1cc(Oc2ccc(NC(=O)Nc3cc(C(C)(C)C)nn3-c3ccc4ncccc4c3)c(F)c2)ccn1 [REBASTINIB]
4. CCc1cc2c(cc1CC)CC(NC[C@H](O)c1ccc(O)c3[nH]c(=O)ccc13)C2 [INDACATEROL]
5. CC(C)(C)c1cnc(CSc2cnc(NC(=O)C3CCNCC3)s2)o1 [BMS-387032]
6. N#Cc1cnc(Nc2cc(NC[C@H]3CNCCO3)c(C(F)(F)F)cn2)cn1 [SRA-737]

Reply:
1. 8
2. 4
3. 28
4. 7
5. 6
6. 34
